I'd be grateful if you could share measured Ki for these entries.
Target: human histamine H4 receptor (Homo sapiens, UniProt Q9H3N8)
Construct: expressed in transfected cells; host or cells: SK-N-MC cells or COS7 cells, transiently transfected; membrane preparation
Sequence (Q9H3N8 whole entry): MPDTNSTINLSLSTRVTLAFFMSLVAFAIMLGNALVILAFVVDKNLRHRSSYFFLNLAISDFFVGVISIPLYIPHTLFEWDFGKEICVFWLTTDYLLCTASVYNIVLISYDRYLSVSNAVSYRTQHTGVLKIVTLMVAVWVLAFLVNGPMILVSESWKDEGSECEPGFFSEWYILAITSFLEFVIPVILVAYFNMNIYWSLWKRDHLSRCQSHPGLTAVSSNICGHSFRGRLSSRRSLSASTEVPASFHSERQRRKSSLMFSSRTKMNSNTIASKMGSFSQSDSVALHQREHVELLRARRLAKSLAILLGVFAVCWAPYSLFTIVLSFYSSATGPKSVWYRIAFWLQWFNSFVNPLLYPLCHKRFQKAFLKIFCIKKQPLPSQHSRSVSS
Assay: Binding assay on recombinant human histamine H4 receptor (3H-histamine displacement)
Details: Table 1; competition with 3H-histamine, Cheng-Prusoff, KD 5 nM, ligand 5 nM; read-out: Ki

Would you please look over these solved cases?
Task: # Ki lookup, item CN1CCN(c2nc3ccc(C(F)(F)F)cc3[nH]c2=O)CC1
Output: 19 nM

Task: Now give it for CN1CCN(c2nc3cc(Cl)c(Cl)cc3[nH]c2=O)CC1 too.
Output: 32 nM

Task: Now give it for Cc1cc2nc(N3CCN(C)CC3)c(=O)[nH]c2cc1Cl too.
Output: 93 nM

Need Ki for each of these compounds.
1. CN1CCN(c2nc3cc(C(F)(F)F)cc(Cl)c3[nH]c2=O)CC1
2. O=c1[nH]c2c([N+](=O)[O-])cccc2nc1N1CCNCC1

Output:
1. 166 nM
2. 640 nM
